target: Full length DGKζ (in-house protein M1-V929) (Homo sapiens, UniProt Q13574); construct: His (N); TEV site (N); experiment: Biochemical DGK IC50 assay (ADP-Glo, lipid micelle substrate), DGKζ; details: 1 hour preincubation, 1 hour reaction, room temperature
Sequence (Q13574 1-929 isoform Q13574-4): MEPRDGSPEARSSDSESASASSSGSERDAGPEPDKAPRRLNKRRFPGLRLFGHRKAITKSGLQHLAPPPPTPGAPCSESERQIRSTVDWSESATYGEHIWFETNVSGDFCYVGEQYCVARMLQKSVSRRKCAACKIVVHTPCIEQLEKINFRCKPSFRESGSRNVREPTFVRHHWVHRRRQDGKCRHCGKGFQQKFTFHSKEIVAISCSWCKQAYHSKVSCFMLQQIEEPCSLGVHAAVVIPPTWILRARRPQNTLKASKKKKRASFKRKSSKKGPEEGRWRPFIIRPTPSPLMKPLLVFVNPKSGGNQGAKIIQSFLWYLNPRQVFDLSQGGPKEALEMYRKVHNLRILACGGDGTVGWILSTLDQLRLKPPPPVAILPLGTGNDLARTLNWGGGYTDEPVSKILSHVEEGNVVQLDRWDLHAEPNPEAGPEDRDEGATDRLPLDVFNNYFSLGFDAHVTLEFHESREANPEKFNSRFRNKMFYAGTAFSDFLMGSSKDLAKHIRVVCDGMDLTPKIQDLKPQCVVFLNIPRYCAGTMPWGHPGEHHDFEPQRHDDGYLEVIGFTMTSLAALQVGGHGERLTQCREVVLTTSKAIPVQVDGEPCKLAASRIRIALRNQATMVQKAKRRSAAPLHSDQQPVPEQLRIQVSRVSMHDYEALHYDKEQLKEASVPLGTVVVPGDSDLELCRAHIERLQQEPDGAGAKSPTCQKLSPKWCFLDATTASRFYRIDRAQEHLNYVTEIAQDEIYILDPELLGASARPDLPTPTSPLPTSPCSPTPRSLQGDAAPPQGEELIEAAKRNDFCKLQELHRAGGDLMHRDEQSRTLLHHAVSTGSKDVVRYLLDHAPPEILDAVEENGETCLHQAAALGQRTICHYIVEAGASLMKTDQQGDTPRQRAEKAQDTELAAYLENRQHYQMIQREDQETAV
Would you mind telling me the reported pIC50 of each entry?
Give bare numbers, as −log10 of the molar value.

A selection of reference data follows.
compound | experimental_target | pIC50
CCn1c(CC#N)nc2c(N3C[C@@H](C)N(C(C)c4ccc(C)c(C)n4)C[C@@H]3C)nc(=O)n(C)c21 (stereo partly drawn) [Compound A138] | Full length DGKζ (in-house protein M1-V929) (Homo sapiens, UniProt Q13574) | 6.02
CC(c1ccc2c(c1)OC(C)(C)O2)N1C[C@H](C)N(c2nc(=O)n(C)c3c2nc(CC#N)n3C)C[C@H]1C (single isomer, unassigned) [Compound A98a] | Full length DGKζ (in-house protein M1-V929) (Homo sapiens, UniProt Q13574) | 8.30

Batch lookup, pIC50 per entry.
1. CCn1c(CC#N)nc2c(N3C[C@@H](C)N(C(C)c4ccnc(NC(C)C)c4)C[C@@H]3C)nc(=O)n(C)c21 (stereo partly drawn) [Compound A122]
2. CC[C@H]1CN(C(C)c2ccc3ncc(C)nc3c2)[C@H](CC)CN1c1nc(=O)n(C)c2c1nc(CC#N)n2C (single isomer, unassigned) [Compound A51a]
3. CC(c1cccnc1C(F)(F)F)N1C[C@H](C)N(c2cc(=O)n(C)c3c2nc(CC#N)n3C)C[C@H]1C (single isomer, unassigned) [Compound A7a]

Response:
[6.08, 8.52, 5.51]

* * *

target: Full length DGKα (D21-10BG, SignalChem) (Homo sapiens, UniProt P23743)
Sequence (P23743 whole entry): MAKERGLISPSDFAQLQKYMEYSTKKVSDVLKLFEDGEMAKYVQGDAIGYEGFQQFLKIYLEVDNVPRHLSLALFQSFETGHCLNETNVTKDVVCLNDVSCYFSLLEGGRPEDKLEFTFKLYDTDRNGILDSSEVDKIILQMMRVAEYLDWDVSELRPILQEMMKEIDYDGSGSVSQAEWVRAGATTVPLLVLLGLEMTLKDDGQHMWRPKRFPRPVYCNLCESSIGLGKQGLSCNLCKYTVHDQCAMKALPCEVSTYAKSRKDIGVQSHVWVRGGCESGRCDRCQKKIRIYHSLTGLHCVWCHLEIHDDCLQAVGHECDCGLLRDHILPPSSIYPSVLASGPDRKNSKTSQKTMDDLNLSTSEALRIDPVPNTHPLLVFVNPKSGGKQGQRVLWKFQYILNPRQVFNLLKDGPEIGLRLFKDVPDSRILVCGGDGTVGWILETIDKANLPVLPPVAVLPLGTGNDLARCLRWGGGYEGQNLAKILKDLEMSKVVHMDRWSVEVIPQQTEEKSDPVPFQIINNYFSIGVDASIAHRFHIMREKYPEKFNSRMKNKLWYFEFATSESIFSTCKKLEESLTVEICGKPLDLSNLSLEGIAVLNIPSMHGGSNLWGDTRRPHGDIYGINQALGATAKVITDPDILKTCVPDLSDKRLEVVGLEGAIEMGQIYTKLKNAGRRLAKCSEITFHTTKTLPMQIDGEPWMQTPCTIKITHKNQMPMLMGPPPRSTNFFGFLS
measured_quantity: IC50 (µM)
One number for each entry, in µM.

A selection of reference data follows.
compound | measure_unit | IC50
CCn1c(CC#N)nc2c(N3C[C@@H](C)N(C(C)c4ccc5c(c4)OC(C)(C)CC5)C[C@@H]3C)nc(=O)n(C)c21 (mixture of isomers) [Compound A94] | µM | 23.2
Cc1cnc2ccc(C(C)N3C[C@H](C)N(c4c(F)c(=O)n(C)c5c4nc(CC#N)n5C)C[C@H]3C)cc2n1 (single isomer, unassigned) [Compound A23b] | µM | 16.2
CCn1c(CC#N)nc2c(N3C[C@@H](C)N(C(C)c4ccc5c(c4)OC(C)(C)O5)C[C@@H]3C)nc(=O)n(C)c21 (single isomer, unassigned) [Compound A85b] | µM | 88.6
CCn1c(CC#N)nc2c(N3C[C@@H](C)N(C(C)c4ccc5c(c4)OC4(CCC4)O5)C[C@@H]3C)nc(=O)n(C)c21 (single isomer, unassigned) [Compound A169a] | µM | 31.7
CCn1c(CC#N)nc2c(N3C[C@@H](C)N(C(C)c4ccc5c(c4)OC(F)(F)CO5)C[C@@H]3C)nc(=O)n(C)c21 (mixture of isomers) [Compound A80] | µM | 95
CCn1c(CC#N)nc2c(N3C[C@@H](C)N(C(C)c4cccc5c4OC(C)(C)O5)C[C@@H]3C)nc(=O)n(C)c21 (some centres unmarked) | µM | 143

For the next question, use this compound.
Prompt: Complete the entry with IC50 for CCn1c(CC#N)nc2c(N3C[C@@H](C)N(C(C)c4cc5c(cc4F)OC(C)(C)CO5)C[C@@H]3C)nc(=O)n(C)c21 (single isomer, unassigned) [Compound A156a]
Response: 68.6

* * *

Would you mind telling me the reported pIC50 of each entry?
target: Full length DGKζ (in-house protein M1-V929) (Homo sapiens, UniProt Q13574); construct: His (N); TEV site (N); experiment: Biochemical DGK IC50 assay (ADP-Glo, lipid micelle substrate), DGKζ; conditions: 1 hour preincubation, 1 hour reaction, room temperature
Give bare numbers, as −log10 of the molar value.

A selection of reference data follows.
compound | measured_quantity | result_number
CCn1c(CC#N)nc2c(N3C[C@@H](C)N(C(C)c4ccc5c(c4)C(=O)N(C)C5=O)C[C@@H]3C)nc(=O)n(C)c21 (some centres unmarked) [Compound A83] | pIC50 | 7.40
COc1cc(F)ccc1C(C)N1C[C@H](C)N(c2c(F)c(=O)n(C)c3c2nc(CC#N)n3C)C[C@H]1C (some centres unmarked) [Compound A16] | pIC50 | 7.62

Batch lookup, pIC50 per entry.
1. [2H]C([2H])([2H])n1c(CC#N)nc2c(N3C[C@@H](C)N(C(C)c4ccc(F)cc4C(F)(F)F)C[C@@H]3C)nc(=O)n(C([2H])([2H])[2H])c21 (some centres unmarked) [Compound A36]
2. CCn1c(CC#N)nc2c(N3C[C@@H](C)N(C(C)c4cccc(OC(C)C)c4)C[C@@H]3C)nc(=O)n(C)c21 (some centres unmarked) [Compound A43]
3. CCn1c(CC#N)nc2c(N3C[C@@H](C)N(C(C)c4ccc(F)cc4C(F)(F)F)C[C@@H]3C)nc(=O)n(C)c21 (single isomer, unassigned) [Compound A35b]
4. CC(c1ccc2c(c1)OC(C)(C)O2)N1C[C@H](C)N(c2nc(=O)n(C)c3c2nc(CC#N)n3C)C[C@H]1C (single isomer, unassigned) [Compound A98b]
5. CC(c1ccc2c(c1)OCCO2)N1C[C@H](C)N(c2nc(=O)n(C)c3c2nc(CC#N)n3C)C[C@H]1C (some centres unmarked) [Compound A58]
6. CC(c1ccc2nccnc2c1)N1C[C@H](C)N(c2cc(=O)n(C)c3c2nc(CC#N)n3C)C[C@H]1C (single isomer, unassigned) [Compound A1b]
7. CC(c1ccc2c(c1)OCCO2)N1C[C@H](C)N(c2nc(=O)n(C)c3c2nc(CC#N)n3C)C[C@H]1C (single isomer, unassigned) [Compound A58a]

Response:
[7.77, 7.10, 7.62, 6.58, 7.40, 5.63, 7.70]

Batch lookup, pIC50 per entry.
1. CC(c1cc2c(cc1F)OCC(C)(C)O2)N1C[C@H](C)N(c2nc(=O)n(C)c3c2nc(CC#N)n3C)C[C@H]1C (single isomer, unassigned) [Compound A69a]
2. [2H]C([2H])([2H])n1c(CC#N)nc2c(N3C[C@@H](C)N(C(C)c4ccc(F)cc4C(F)(F)F)C[C@@H]3C)nc(=O)n(C)c21 (some centres unmarked) [Compound A37]
3. CC(c1ccc2c(c1F)OC(C)(C)CO2)N1C[C@H](C)N(c2nc(=O)n(C)c3c2nc(CC#N)n3C)C[C@H]1C (some centres unmarked) [Compound A70]
4. CCn1c(CC#N)nc2c(N3C[C@@H](C)N(C(C)c4cc(F)c5c(c4)OC(C)(C)O5)C[C@@H]3C)c(F)c(=O)n(C)c21 (some centres unmarked) [Compound A189]
5. Cc1ccc(C(C)N2C[C@H](C)N(c3cc(=O)n(C)c4c3nc(CC#N)n4C)C[C@H]2C)cc1 (single isomer, unassigned) [Compound A5b]

Response:
8.70
7.74
8.10
7.47
7.06

* * *

molecular target: Full length DGKζ (in-house protein M1-V929) (Homo sapiens); construct: His (N); TEV site (N); assay: Biochemical DGK IC50 assay (ADP-Glo, lipid micelle substrate), DGKζ; details: 1 hour preincubation, 1 hour reaction, room temperature
Would you mind telling me the reported IC50 of each entry?
Numbers only, in nM.

A selection of reference data follows.
compound | IC50 (nM)
CCn1c(CC#N)nc2c(N3C[C@@H](C)N(C(C)c4cccc5c4OC(F)(F)O5)C[C@@H]3C)nc(=O)n(C)c21 (stereo partly drawn) | 407
CC(c1ccc2nccnc2c1)N1C[C@H](C)N(c2c(F)c(=O)n(C)c3c2nc(CC#N)n3C)C[C@H]1C (single isomer, unassigned) [Compound A22a] | 26
CCn1c(CC#N)nc2c(N3C[C@@H](C)N(C(C)c4cccc(OC)c4)C[C@@H]3C)nc(=O)n(C)c21 (stereo partly drawn) | 301
CCn1c(=O)nc(N2C[C@@H](C)N(C(C)c3ccc4ncc(C)nc4c3)C[C@@H]2C)c2nc(CC#N)n(C)c21 (single isomer, unassigned) [Compound A53a] | 24
COCc1cc(F)ccc1C(C)N1C[C@H](C)N(c2nc(=O)n(C)c3c2nc(CC#N)n3C)C[C@H]1C (single isomer, unassigned) [Compound A27b] | 15

For the next question, use this compound.
Prompt: Complete the entry with IC50 for COC[C@H]1CN(C(C)c2ccc3c(c2)OC(C)(C)CO3)[C@H](C)CN1c1nc(=O)n(C)c2c1nc(CC#N)n2C (single isomer, unassigned) [Compound A12b]
Response: 57

* * *

biological target: Full length DGKζ (in-house protein M1-V929) (Homo sapiens, UniProt Q13574); construct: His (N); TEV site (N); test: Biochemical DGK IC50 assay (ADP-Glo, lipid micelle substrate), DGKζ; settings: 1 hour preincubation, 1 hour reaction, room temperature
Would you mind telling me the reported IC50 of each entry?
Answers are plain numbers, in nM.

A selection of reference data follows.
compound | measured_quantity | result_number
COC[C@H]1CN(C(C)c2ccc(F)cc2C(F)(F)F)[C@H](C)CN1c1nc(=O)n(C)c2c1nc(CC#N)n2C (single isomer, unassigned) [Compound A10b] | IC50 | 14
CCn1c(CC#N)nc2c(N3C[C@@H](C)N(C(C)c4cc(C)c5c(c4)OC(C)(C)O5)C[C@@H]3C)nc(=O)n(C)c21 (stereo partly drawn) [Compound A177] | IC50 | 168

For the next question, use this compound.
Prompt: Complete the entry with IC50 for CCn1c(CC#N)nc2c(N3C[C@@H](C)N(C(C)c4ccc(C)cc4C(F)(F)F)C[C@@H]3C)nc(=O)n(C)c21 (stereo partly drawn) [Compound A116]
Response: 350
